Biological target: T1, rat amylin receptor (rat calcitonin receptor + rat RAMP 3) (rat, UniProt P32214 25-516; Q9JJ73 23-147)
T1 construct: whole, on cells; Membranes prepared from transiently transfected BHK tk'ts 13 cells (Assay VI); also called rAmylin-R; rAmylin
T1 sequence (looked up) 1: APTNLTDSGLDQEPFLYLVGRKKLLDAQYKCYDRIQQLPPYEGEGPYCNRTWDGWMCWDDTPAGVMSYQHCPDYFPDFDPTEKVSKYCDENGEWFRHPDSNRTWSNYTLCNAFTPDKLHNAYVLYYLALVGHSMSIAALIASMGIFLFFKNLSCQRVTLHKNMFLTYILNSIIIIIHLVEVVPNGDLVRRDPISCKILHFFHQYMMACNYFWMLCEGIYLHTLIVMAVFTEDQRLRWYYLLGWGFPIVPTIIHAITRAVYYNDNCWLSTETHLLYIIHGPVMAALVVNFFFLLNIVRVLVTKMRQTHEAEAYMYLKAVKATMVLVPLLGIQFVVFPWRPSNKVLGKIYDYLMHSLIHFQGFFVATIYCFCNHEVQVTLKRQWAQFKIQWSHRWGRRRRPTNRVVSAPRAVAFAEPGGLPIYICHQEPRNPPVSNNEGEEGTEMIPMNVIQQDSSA
T1 sequence (looked up) 2: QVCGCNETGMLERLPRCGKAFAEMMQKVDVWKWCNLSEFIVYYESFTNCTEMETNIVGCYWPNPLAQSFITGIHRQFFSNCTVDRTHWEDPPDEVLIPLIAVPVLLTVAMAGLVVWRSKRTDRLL
Assay: SPA competition vs 125I-rat amylin, membranes of BHK cells with rat calcitonin receptor + rat RAMP3 (Assay VI)
Numbered stars: 1 amine (or outer) side, 2 acyl side, 3 side chain; on linkers, the order of the positions; unused ones are H or OH. Bridge positions count the residues as written; N and C are the ends. Side chains are listed from the residue outwards. Ends that are not written are not given here. * marks the point of attachment. C20 diacid = O=C(O)CCCCCCCCCCCCCCCCCCC(=O)*; γGlu = O=C(O)[C@H](CCC(=O)[*:2])N[*:1]; AEEA = NCCOCCOCC(=O)O
Endpoint Name: IC50 (nM)
Give just the number in nM; leave the unit off.

# input Requested read-out: IC50. Entry: K([AEEA-γGlu-C20 diacid])CNTATCATQRLANFLRHSSPNFGAIPPSTPVGSNTY-NH2 (disulfide 2-7, Analogue of human amylin; also called compound 53)
# output 0.084
